The measurements presented in this section are drawn from ChEMBL document CHEMBL3769388.

- assayExplanation: Renal clearance in Wistar Han rat at 1 mg/kg, iv by LC-MS/MS analysis
- Assay type: ADME, organism-based, Kidney
- appliedConditions: in vivo
measuredMetric: CL renal (mL/min/kg)

molecule: COc1ncc(C)cc1CC[C@](O)(CC(=O)O)C(=O)O
measuredMetric: CL renal
val: 2.8
--
molecule: COc1ncc(C)cc1CC[C@@](O)(CC(=O)O)C(=O)O
measuredMetric: CL renal
val: 4.4
--
molecule: CC(C)(C)c1ccc(CCC(O)(CC(=O)O)C(=O)O)cc1 (racemic)
measuredMetric: CL renal
val: 1.9
--
molecule: CC(C)(C)c1ccc(CC[C@@](O)(CC(=O)O)C(=O)O)cc1
measuredMetric: CL renal
val: 0.5
--
molecule: CCOc1ncccc1CC[C@@](O)(CC(=O)O)C(=O)O
measuredMetric: CL renal
val: 1.8

----------
Measured clearance, listed per entry.
- assayExplanation: Total plasma clearance in Wistar Han rat at 1 mg/kg, iv by LC-MS/MS analysis
- Assay type: ADME, organism-based
measuredMetric: clearance (mL/min/kg)

molecule: CC(C)(C)c1ccc(CCC(O)(CC(=O)O)C(=O)O)cc1 (racemic)
val: 8.5
--
molecule: COc1ncc(C)cc1CC[C@@](O)(CC(=O)O)C(=O)O
val: 15.8
--
molecule: COc1ncc(C)cc1CC[C@](O)(CC(=O)O)C(=O)O
val: 9.9
--
molecule: CC(C)(C)c1ccc(CC[C@@](O)(CC(=O)O)C(=O)O)cc1
val: 4.5
--
molecule: CCOc1ncccc1CC[C@@](O)(CC(=O)O)C(=O)O
val: 6.7
